# credit: the supplement of paper PMC10724198

Test system: Saccharomyces cerevisiae
test_summary: protein stability index of tFT-peptide fusion (C-terminal peptide) (PSI (0-1 scale)); higher = more stable (slower turnover)
recorded_conditions: genetic background: wild type; temperature: 30 C
assay_endpoint: protein stability index
I'd appreciate a reply containing only the number, no unit.

Worked cases, protein stability index given:
monomer_sequence	value_reported
GATDMVTSGEWV	0.757
RGYVNVWTRLGN	0.717
LNPPYLAPPPPF	0.739
AHYGSNNNGLVF	0.695
MAICRVLSQVFL	0.686
VFFTSLPPLLRA	0.458
GRGGLGWGEWDR	0.699
PPPAAPPSSPLL	0.765

Inquiry: # input sequence: CGVGWGMGEGWR ; wanted: its protein stability index
Reply text: 0.696

Inquiry: Also need APPPPSPPSLAS , thanks.
Reply text: 0.736

====

System: Saccharomyces cerevisiae
test_summary: protein stability index of tFT-peptide fusion (C-terminal peptide) (PSI (0-1 scale)); higher = more stable (slower turnover)
recorded_conditions: genetic background: wild type; temperature: 30 C
assay_endpoint: protein stability index

monomer_sequence	assay_endpoint	value_reported
PPPPRPSSPLIL	protein stability index	0.741
FLFPFLSVLFLL	protein stability index	0.245
SLRLHCSRQRRP	protein stability index	0.649
KKNQKKNEKHIK	protein stability index	0.689
QARKGPISSCRP	protein stability index	0.664

Inquiry: # input sequence: APARPPVTLSTN ; wanted: its protein stability index
Reply text: 0.671

Inquiry: Also need GVGGCRVRGLGA , thanks.
Reply text: 0.691

Inquiry: Also need FTHVKEVNTGNR , thanks.
Reply text: 0.672

Inquiry: Also need LSSWTYTRFLHG , thanks.
Reply text: 0.749

Inquiry: Also need LPPPLPPPGPPF , thanks.
Reply text: 0.715

====

System: Saccharomyces cerevisiae
test_summary: protein stability index of tFT-peptide fusion (C-terminal peptide) (PSI (0-1 scale)); higher = more stable (slower turnover)
recorded_conditions: genetic background: das1 deletion; temperature: 37 C
protein stability index: recorded values
I'd appreciate a reply containing only the number, no unit.

Worked cases, protein stability index given:
monomer_sequence	protein stability index
LGALFGRFWWYF	0.795
AHPTLILTNKIA	0.712
FFFFPVYFIFVV	0.409
LFSVLVFIYFVM	0.288

Inquiry: # input sequence: CPALYMPPPVLV ; wanted: its protein stability index
Reply text: 0.238

Inquiry: Also need SFFVCAGFWVLC , thanks.
Reply text: 0.539

Inquiry: Also need PPLPPPPASVPP , thanks.
Reply text: 0.709

Inquiry: Also need ARRFLVRRFILF , thanks.
Reply text: 0.683

Inquiry: Also need WSISFGLLVCWV , thanks.
Reply text: 0.42

Inquiry: Also need AGVRCPLFWLVC , thanks.
Reply text: 0.632

Inquiry: Also need RGSLYLILVLIG , thanks.
Reply text: 0.404

Inquiry: Also need FLFPFLSVLFLL , thanks.
Reply text: 0.559

Inquiry: Also need VVGLSLLFSGGV , thanks.
Reply text: 0.758

====

Test system: Saccharomyces cerevisiae
test_summary: protein stability index of tFT-peptide fusion in wild type (PSI (0-1 scale)); higher = more stable (slower turnover)
recorded_conditions: genetic background: wild type
assay_endpoint: protein stability index
I'd appreciate a reply containing only the number, no unit.

monomer_sequence	assay_endpoint	value_reported
RLIQPRPVQFLN	protein stability index	0.0515
GLYMCCVGCWFR	protein stability index	0.303

Inquiry: # input sequence: KKHKKGQKQKIS ; wanted: its protein stability index
Reply text: 0.101

Inquiry: Also need PDKRNHLIKLLNL , thanks.
Reply text: 0.298

Inquiry: Also need RLIEPLPVQFLN , thanks.
Reply text: 0.076

Inquiry: Also need RVTRLDFIYFRI , thanks.
Reply text: 0.171

Inquiry: Also need GLYQCSVGCWFR , thanks.
Reply text: 0.434

====

Tested on: Saccharomyces cerevisiae
test_summary: protein stability index of tFT-peptide fusion (C-terminal peptide) (PSI (0-1 scale)); higher = more stable (slower turnover)
recorded_conditions: genetic background: wild type; temperature: 30 C
assay_endpoint: protein stability index
I'd appreciate a reply containing only the number, no unit.

Worked cases, protein stability index given:
monomer_sequence	protein stability index
LFGTCLVAMLLF [SPS22 C-terminal 12 aa]	0.449
VIIVPIAVHFSR [SNC1 C-terminal 12 aa]	0.581
KFAKANIGYVMG [RPN4 C-terminal 12 aa]	0.495
GSAAVAGALLLL [YNL190W C-terminal 12 aa]	0.664
YIFQTYVSVDSK [YAR047C C-terminal 12 aa]	0.58

Shift focus to the following entry.
Inquiry: # input sequence: PDVLRKLSHQNV [PNS1 C-terminal 12 aa] ; wanted: its protein stability index
Reply text: 0.666

====

Test system: Saccharomyces cerevisiae
test_summary: protein stability index of tFT-peptide fusion (C-terminal peptide) (PSI (0-1 scale)); higher = more stable (slower turnover)
recorded_conditions: genetic background: wild type; temperature: 30 C
Binary classification by protein stability index, with 0.7 as an inclusive lower bound for 1; all other cases are 0.

monomer_sequence	label
SQEPQYKLFRGR [MRPL16 C-terminal 12 aa]	1
PLSKMEDQVFVF [CBR1 C-terminal 12 aa]	0
VAKKRLSSRSKP [YNL162W-A C-terminal 12 aa]	0
VGKKLETFKKTN [WBP1 C-terminal 12 aa]	0
TRKKGGRRGRRL [RPS14A C-terminal 12 aa]	0
RGRIAAQKRIAA [RPL17A C-terminal 12 aa]	0

Inquiry: Has SLLFVGPLFLKV [YCL007C C-terminal 12 aa] a recorded protein stability index greater than or equal to 0.7?
Reply text: 0

Inquiry: Also need SFPVVEPMGGST [BDS1 C-terminal 12 aa] , thanks.
Reply text: 1

====

System: Saccharomyces cerevisiae
test_summary: protein stability index of tFT-peptide fusion (C-terminal peptide) (PSI (0-1 scale)); higher = more stable (slower turnover)
recorded_conditions: genetic background: wild type; temperature: 30 C
protein stability index: recorded values
I'd appreciate a reply containing only the number, no unit.

monomer_sequence	protein stability index
TQRTSRDPLRAP	0.652

Inquiry: # input sequence: SCLYPTQILART ; wanted: its protein stability index
Reply text: 0.631

Inquiry: Also need NGQSELHDHYME , thanks.
Reply text: 0.651

Inquiry: Also need SGYKVYNSVHIL , thanks.
Reply text: 0.602

Inquiry: Also need DNWHRSFSTYPV , thanks.
Reply text: 0.647

Inquiry: Also need SPTRSPPRPLPP , thanks.
Reply text: 0.649

Inquiry: Also need PISPPLPRPSPR , thanks.
Reply text: 0.696

Inquiry: Also need RLGCGFGGGEEV , thanks.
Reply text: 0.674

Inquiry: Also need FLFSVVFFFFSL , thanks.
Reply text: 0.421

Inquiry: Also need LSFRPPLHPFAL , thanks.
Reply text: 0.695

Inquiry: Also need GTKDRSNMIRKS , thanks.
Reply text: 0.67

Inquiry: Also need FGVLFFVFVFVC , thanks.
Reply text: 0.177

====

System: Saccharomyces cerevisiae
test_summary: protein stability index of tFT-peptide fusion (C-terminal peptide) (PSI (0-1 scale)); higher = more stable (slower turnover)
recorded_conditions: genetic background: wild type; temperature: 30 C
protein stability index: recorded values
I'd appreciate a reply containing only the number, no unit.

monomer_sequence	protein stability index
EKTKEEKKLRTK	0.647

Shift focus to the following entry.
Inquiry: # input sequence: LRQRAHRPYFRS ; wanted: its protein stability index
Reply text: 0.706

====

protein stability index: recorded values
System: Saccharomyces cerevisiae
test_summary: protein stability index of tFT-peptide fusion (C-terminal peptide) (PSI (0-1 scale)); higher = more stable (slower turnover)
recorded_conditions: genetic background: das1 deletion; temperature: 30 C

monomer_sequence	assay_endpoint	value_reported
VPGGKKTPTEAL [LSM5 C-terminal 12 aa]	protein stability index	0.682

Inquiry: # input sequence: KHAFMGTLKKDL [RPL3 C-terminal 12 aa] ; wanted: its protein stability index
Reply text: 0.7

Inquiry: Also need LVKCASATIMLN [MIN3 C-terminal 12 aa] , thanks.
Reply text: 0.704

Inquiry: Also need YVASHESQKADE [RRP5 C-terminal 12 aa] , thanks.
Reply text: 0.688

Inquiry: Also need DLKTGNAVKGEL [SSZ1 C-terminal 12 aa] , thanks.
Reply text: 0.669

Inquiry: Also need AIEEGAGAFLLS [UFD4 C-terminal 12 aa] , thanks.
Reply text: 0.706

Inquiry: Also need DAYHKAAEENKD [MCT1 C-terminal 12 aa] , thanks.
Reply text: 0.673

====

Tested on: Saccharomyces cerevisiae
test_summary: protein stability index of tFT-peptide fusion in deletion strain of DOA10 (PSI (0-1 scale)); higher = more stable (slower turnover)
assay_endpoint: protein stability index
I'd appreciate a reply containing only the number, no unit.

Worked cases, protein stability index given:
monomer_sequence	value_reported
AITLPMCPLLLRN	0.659
CLVSLPIVLFFR	0.581
RSRRVLLPLYFR	0.702

Shift focus to the following entry.
Inquiry: Short answer please: protein stability index, Saccharomyces cerevisiae, entry FSLRVLLPLYFR
Reply text: 0.608
